test.target: the molecule itself
experiment.description: SEC; Superdex 200 10/300 GL, 4 °C, 20 mM HEPES pH 8.0; 1 mg/mL protein pre-incubated with 2 mM DTT
recorded.metric: stoichiometry N
// return a plain number; no unit text

In: Any idea what stoichiometry N was measured for C115S-PaHisGS (enzyme, Psychrobacter arcticus, HisGS, Psychrobacter arcticus, with C115S; made from the WT-PaHisGS expression vector) MTEVTNSLPTSGLLNEANDEFLGLTLALSKGRILEETMPLLRAAGVELLEDPEASRKLIFPTSNPNVRVLILRASDVPTYVEHGAADFGVAGKDVLLEHGANHVYELLDLKIAQSKLMTAGVKDAPLPNRRLRIATKYVNVARAYFASQGQQVDVIKLYGSMELAPLVGLGDLIVDVVDTGNTLRANGLEARDHICDVSSRLIVNQVSYKRKFALLEPILDSFKNSINSTS ?
Out: 2

In: Any idea what stoichiometry N was measured for R56A-PaHisGS (enzyme, Psychrobacter arcticus, HisGS, Psychrobacter arcticus, with R56A; made from the WT-PaHisGS expression vector) MTEVTNSLPTSGLLNEANDEFLGLTLALSKGRILEETMPLLRAAGVELLEDPEASAKLIFPTSNPNVRVLILRASDVPTYVEHGAADFGVAGKDVLLEHGANHVYELLDLKIAQCKLMTAGVKDAPLPNRRLRIATKYVNVARAYFASQGQQVDVIKLYGSMELAPLVGLGDLIVDVVDTGNTLRANGLEARDHICDVSSRLIVNQVSYKRKFALLEPILDSFKNSINSTS ?
Out: 2

In: Any idea what stoichiometry N was measured for R56A/K57A-PaHisGS (enzyme, Psychrobacter arcticus, HisGS, Psychrobacter arcticus, with R56A and K57A; made from the WT-PaHisGS expression vector) MTEVTNSLPTSGLLNEANDEFLGLTLALSKGRILEETMPLLRAAGVELLEDPEASAALIFPTSNPNVRVLILRASDVPTYVEHGAADFGVAGKDVLLEHGANHVYELLDLKIAQCKLMTAGVKDAPLPNRRLRIATKYVNVARAYFASQGQQVDVIKLYGSMELAPLVGLGDLIVDVVDTGNTLRANGLEARDHICDVSSRLIVNQVSYKRKFALLEPILDSFKNSINSTS ?
Out: 2
